- Target entity: Mucosa-associated lymphoid tissue lymphoma translocation protein 1 (Homo sapiens)
- Sequence (Q9UDY8 whole entry): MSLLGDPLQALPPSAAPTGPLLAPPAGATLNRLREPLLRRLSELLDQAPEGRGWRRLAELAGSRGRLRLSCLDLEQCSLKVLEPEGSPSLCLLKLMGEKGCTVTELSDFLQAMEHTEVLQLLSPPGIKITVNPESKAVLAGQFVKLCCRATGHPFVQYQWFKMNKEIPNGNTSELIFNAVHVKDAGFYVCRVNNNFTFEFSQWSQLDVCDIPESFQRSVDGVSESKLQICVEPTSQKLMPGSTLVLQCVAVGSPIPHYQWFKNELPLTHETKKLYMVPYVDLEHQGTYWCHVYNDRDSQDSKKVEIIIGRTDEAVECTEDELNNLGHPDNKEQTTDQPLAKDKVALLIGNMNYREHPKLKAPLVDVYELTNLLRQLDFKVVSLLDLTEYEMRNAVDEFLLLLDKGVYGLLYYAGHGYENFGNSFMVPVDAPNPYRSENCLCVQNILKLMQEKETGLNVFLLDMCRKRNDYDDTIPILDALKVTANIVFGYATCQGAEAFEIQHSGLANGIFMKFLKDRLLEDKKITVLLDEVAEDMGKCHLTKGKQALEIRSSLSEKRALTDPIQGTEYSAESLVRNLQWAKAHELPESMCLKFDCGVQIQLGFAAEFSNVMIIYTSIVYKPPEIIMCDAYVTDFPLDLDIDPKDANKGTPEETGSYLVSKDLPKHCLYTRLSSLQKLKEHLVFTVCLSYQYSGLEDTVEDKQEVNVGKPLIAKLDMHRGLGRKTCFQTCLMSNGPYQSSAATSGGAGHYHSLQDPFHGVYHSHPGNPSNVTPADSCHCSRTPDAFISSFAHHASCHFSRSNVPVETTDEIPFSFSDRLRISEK
- Protocol text: MALT1 Protease Assay 2
Kindly state IC50 for each of the entries shown.

IC50 measured on `C[C@@]1(C(F)(F)F)CN(C(=O)N[C@@H]2CCCC[C@H]2O)c2cnc3cc(Cl)nn3c21` = > 1000 nM

IC50 measured on `Cc1cc(NC(=O)N2C[C@@](C)(C(F)(F)F)c3c2cnc2cc(Cl)nn32)nc2c1cnn2C` = > 1000 nM

IC50 measured on `CCc1cc2ncc3c(n2n1)[C@](C)(C(F)(F)F)CN3C(=O)Nc1cnnc(C(F)F)c1` = 10 to 100 nM

IC50 measured on `Cc1cc2ncc3c(n2n1)[C@](C)(C(F)(F)F)CN3C(=O)Nc1cnc(-n2nccn2)c(Cl)c1` = < 10 nM

IC50 measured on `C[C@]1(C(F)(F)F)CN(C(=O)Nc2cnnc(C(F)F)c2)c2cnc3cc(C#N)nn3c21` = 100 to 1000 nM

IC50 measured on `C[C@@H](O)c1cnn(-c2ncc(NC(=O)N3C[C@@](C)(C(F)(F)F)c4c3cnc3cc(Cl)nn43)cc2C(F)F)n1` = < 10 nM

IC50 measured on `Cn1cc([C@]2(C(F)(F)F)CN(C(=O)Nc3cnnc(C(F)F)c3)c3cnc4cc(Cl)nn4c32)cn1` = > 1000 nM

IC50 measured on `C[C@@]1(C(F)(F)F)CN(C(=O)Nc2cnc([C@@H](O)CO)c(Cl)c2)c2cnc3cc(Cl)nn3c21` = 100 to 1000 nM

IC50 measured on `Cc1cn2ncc3c(c2n1)[C@](C)(C(F)(F)F)CN3C(=O)Nc1cnc(-n2nccn2)c(Cl)c1` = < 10 nM

IC50 measured on `Cn1cc([C@@]2(C(F)(F)F)CN(C(=O)Nc3cnnc(C(F)F)c3)c3cnc4cc(Cl)nn4c32)cn1` = 10 to 100 nM

The reported measurements were obtained from BindingDB's records for patent US20240018157.
